System: Adrenergic receptor alpha-2 (Rattus norvegicus)
test.summary: Agonism at alpha-2 adrenergic receptor, determined as dose required to produce a two fold shift of the cumulative dose-response curve to UK-14304 on the twitch response in rat vas deferens.
measurement.type: Prejunctional agonist potency
I only need the number, thanks.

State its Prejunctional agonist potency: CCN1c2ccccc2CC1(C)C1=NCCN1 (stereo unspecified)
0

State its Prejunctional agonist potency: Cl.c1ccc(N2c3ccccc3CC2C2=NCCN2)cc1 (stereo unspecified)
0

State its Prejunctional agonist potency: CCN1c2cccc(Cl)c2CC1C1=NCCN1 (stereo unspecified)
0.51

State its Prejunctional agonist potency: COc1cccc2c1N(C)C(C1=NCCN1)C2 (stereo unspecified)
0.4

State its Prejunctional agonist potency: CN1c2cc(Cl)ccc2CC1C1=NCCN1 (stereo unspecified)
0.019

State its Prejunctional agonist potency: c1ccc(COCCN2c3ccccc3CC2C2=NCCN2)cc1 (stereo unspecified)
0

State its Prejunctional agonist potency: CN1c2cccc(Cl)c2CC1C1=NCCN1.Cl (stereo unspecified)
0.29

State its Prejunctional agonist potency: CCN1c2ccccc2CC1C1=NCCN1 (stereo unspecified)
0

State its Prejunctional agonist potency: CN1c2c(Cl)cccc2CC1C1=NCCN1 (stereo unspecified)
0.3

State its Prejunctional agonist potency: CN1c2ccccc2CC1C1=NCCN1 (stereo unspecified)
0.77

State its Prejunctional agonist potency: CN1c2cccc(F)c2CC1C1=NCCN1 (stereo unspecified)
1

State its Prejunctional agonist potency: CCCN1c2ccccc2CC1C1=NCCN1 (stereo unspecified)
0

State its Prejunctional agonist potency: c1ccc2c(c1)CC(C1=NCCN1)C2
0

State its Prejunctional agonist potency: COc1cccc2c1CC(C1=NCCN1)N2C (stereo unspecified)
0

State its Prejunctional agonist potency: CN1c2cccc(Br)c2CC1C1=NCCN1 (stereo unspecified)
0.34

State its Prejunctional agonist potency: CN1c2cccc(O)c2CC1C1=NCCN1 (stereo unspecified)
0.16

State its Prejunctional agonist potency: c1ccc2c(c1)CC(C1=NCCN1)O2 (stereo unspecified)
0

State its Prejunctional agonist potency: CCN1c2ccc(Cl)cc2CC1C1=NCCN1 (stereo unspecified)
0

State its Prejunctional agonist potency: CCC1(C2=NCCN2)Cc2ccccc2N1C (stereo unspecified)
0

State its Prejunctional agonist potency: c1ccc(CN2c3ccccc3CC2C2=NCCN2)cc1 (stereo unspecified)
0.02

State its Prejunctional agonist potency: CN1c2ccc(Cl)cc2CC1C1=NCCN1 (stereo unspecified)
0

----------
Tested on: Rattus norvegicus
test.summary: In vivo ED40 is the raising diastolic blood pressure by 40 mm Hg in pithed rats. (postjunctional)
Type: functional
conditions: Artery
measurement.type: ED40
Please make sure the unit comes right after the number.

State its ED40: c1ccc2c(c1)OCC(C1=NCCN1)O2 (centres undefined)
65.5 µg/kg

State its ED40: CCN1c2cccc(Cl)c2CC1C1=NCCN1 (centres undefined)
0.8 µg/kg

State its ED40: CN1c2ccccc2CC1C1=NCCN1 (centres undefined)
0.5 µg/kg

State its ED40: CNC[C@H](O)c1cccc(O)c1
0.9 µg/kg

----------
study.system: Adrenergic receptor alpha-1 (Rattus norvegicus) (UniProt P15823+P23944+P43140)
test.summary: Agonism at alpha-1 adrenergic receptor, determined as the dose required to produce a two fold shift of the cirazoline on diastolic blood pressure.
Assay type: functional, tissue-based
conditions: Artery
Kindly state Postjunctional agonist potency for each of the entries shown.
I only need the number, thanks.

State its Postjunctional agonist potency: CN1c2cccc(Br)c2CC1C1=NCCN1 (stereo unspecified)
3.4

State its Postjunctional agonist potency: CN1c2cccc(F)c2CC1C1=NCCN1 (stereo unspecified)
6

State its Postjunctional agonist potency: CCN1c2cccc(Cl)c2CC1C1=NCCN1 (stereo unspecified)
4.4

State its Postjunctional agonist potency: COc1cccc2c1CC(C1=NCCN1)N2C (stereo unspecified)
0.62

State its Postjunctional agonist potency: Cl.c1ccc(N2c3ccccc3CC2C2=NCCN2)cc1 (stereo unspecified)
5.3

State its Postjunctional agonist potency: c1ccc(COCCN2c3ccccc3CC2C2=NCCN2)cc1 (stereo unspecified)
0

State its Postjunctional agonist potency: CN1c2ccc(Cl)cc2CC1C1=NCCN1 (stereo unspecified)
2

State its Postjunctional agonist potency: CN1c2cccc(O)c2CC1C1=NCCN1 (stereo unspecified)
6.7

State its Postjunctional agonist potency: CCCN1c2ccccc2CC1C1=NCCN1 (stereo unspecified)
3.9

State its Postjunctional agonist potency: COc1cccc2c1N(C)C(C1=NCCN1)C2 (stereo unspecified)
8

State its Postjunctional agonist potency: CCN1c2ccccc2CC1C1=NCCN1 (stereo unspecified)
1.4
